target desc: SHP2-C SH2;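 further: peptide library displayed on the E. coli surface as eCPX fusions, selected cells deep-sequenced, score is each peptide's frequency after selection divided by its frequency in the input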
experiment description: SH2 binding enrichment of the phosphorylated peptide, bacterial display (enrichment ratio); higher = better substrate or ligand; peptides without Tyr show the background
SH2 binding enrichment listing for selected sequences.
quantity: SH2 binding enrichment

sequence text	quantity	experimental result
ASMAKYFASGI [ACADSB_Y372_E376G_YF]	SH2 binding enrichment	0.86
NVFGNYNNQSS [HNRNPA1_Y318_D314V]	SH2 binding enrichment	0.508
CTTIHYNNMCN [TP53_Y234_Y236N]	SH2 binding enrichment	0.818
KIEGVYARDET [RPL35A_Y34]	SH2 binding enrichment	0.705
IDGLEYLHSPG [STK11_Y166_Q170P]	SH2 binding enrichment	0.558
IGNGFYFRVFS [MYBPC3_Y1136_YF]	SH2 binding enrichment	1.06
YDEYRYRSFIK [CFTR_Y517_V520F]	SH2 binding enrichment	0.849
FLAVGYHKTHI [IDS_Y225_P228T]	SH2 binding enrichment	1.37
RPQDGFRIVQH [PTPRT_Y1329_Y1329F]	SH2 binding enrichment	0.734
DLFRLYVCVKE [ARID1B_Y1091]	SH2 binding enrichment	0.51
PLEGEYFTLQI [TP53_Y327_D324E]	SH2 binding enrichment	0.651
LGNIVYSSLCG [BCOR_Y90_P85L]	SH2 binding enrichment	1.44
RAYSWYQHQRA [NDST1_Y714]	SH2 binding enrichment	1.79
SLFPGYNFRFA [P2RX7_Y291_YF]	SH2 binding enrichment	0.962
RTEAQYRFIFM [PTPN11_Y511_Q506R_YF]	SH2 binding enrichment	0.633
RRLEPYGENFN [APOA4_Y310_V307L]	SH2 binding enrichment	0.286
SYVVRYNQPRV [GRIN2D_Y736_M733V]	SH2 binding enrichment	1.09
NYYDTYIKTCL [IQGAP2_Y1445]	SH2 binding enrichment	0.595
PVGDAYKKKGL [NMNAT1_Y55]	SH2 binding enrichment	0.673
RRFSSYSQMEN [PKP1_Y120]	SH2 binding enrichment	0.774
CTNPRYLAAGS [RABL3_Y185]	SH2 binding enrichment	0.609
DASENYFVMDS [TMEM240_Y77_T80M]	SH2 binding enrichment	0.767
NTGDYYDLYGG [PTPN11_Y63]	SH2 binding enrichment	0.939
QRIYQYIRSRF [DYRK1B_Y273_Q275R]	SH2 binding enrichment	0.428
QLQTTYPSSDN [MAX_Y115_N114T]	SH2 binding enrichment	0.73
RVVVPYEPPEV [TP53_Y220_S215R]	SH2 binding enrichment	0.925
VSRGRYRPEEC [B4GALT4_Y113_Q116E]	SH2 binding enrichment	0.465
KRLWDYGMSSS [F8_Y1728_E1723K]	SH2 binding enrichment	0.57
FPCSVYVPDEW [INSR_Y1011]	SH2 binding enrichment	1.35
